method-description: ATG_AP_1_CIS: Attagene CIS-FACTORIAL HepG2 Assay for human Activator Protein 1 (AP-1) (AID 2282931)
recorded-conditions: HepG2 Attagene cis-factorial AP-1 reporter mRNA; actives raise or lower the signal
Protocol: ATG_CIS is a cell-based, multiplexed-readout assay that uses HepG2, a human liver cell line, with measurements taken at 24 hours after chemical dosing in a 24-well plate.ATG_AP_1_CIS is one of 52 assay component(s) measured or calculated from the ATG_CIS assay. […] This assay endpoint, ATG_AP_1_CIS, was analyzed with bidirectional fitting relative to DMSO as the negative control and baseline of activity. […]
Calls of active or inactive are those of the source. The calls were made as follows: active = hit-call score of the fitted dose curve at least 0.9, where 1 is the maximum; inactive = score below 0.9.
Labels: active, inactive

molecule: CCOP(=S)(OCC)SCn1nnc2ccccc2c1=O
assigned-label: inactive
--
molecule: COP(=O)(O)OC
assigned-label: inactive
--
molecule: CO/N=C(/C(=O)OC)c1ccccc1COc1ccccc1C
assigned-label: active
--
molecule: O=P1(N(CCCl)CCCl)NCCCO1 (stereo not given)
assigned-label: inactive
--
molecule: OCC(F)(F)OC(F)(F)C(F)(F)OC(F)(F)C(F)(F)OC(F)(F)F
assigned-label: inactive

---

Read-out: CD40, CD40 (gene 958)
method-description: BSK_SAg_CD40: BioMAP Diversity Plus: SAg Assay for CD40 Biomarker Activity (AID 2283088)
recorded-conditions: primary human HUVEC with PBMC; actives raise or lower the signal
Activity calls are given as the source filed them. How the source made its calls: active means hit-call score of the fitted dose curve at least 0.9, where 1 is the maximum; inactive means score below 0.9.
Outcomes: class 1 = active, class 0 = inactive

compound: Nc1ccc2ccccc2c1
assigned-label: class 0
//
compound: O=P(OCC(Br)CBr)(OCC(Br)CBr)OCC(Br)CBr (stereo not drawn)
assigned-label: class 0
//
compound: CCCCN(CCCC)SN(C)C(=O)Oc1cccc2c1OC(C)(C)C2
assigned-label: class 1
//
compound: N#Cc1c(-c2ccc(Cl)cc2)[nH]c(C(F)(F)F)c1Br
assigned-label: class 1
//
compound: O=C(O)C(F)(F)OC(F)(F)C(F)(F)OC(F)(F)C(=O)O
assigned-label: class 0
//
compound: [N-]=[N+]=[N-]
assigned-label: class 0
//
compound: O=P(Oc1ccccc1)(Oc1ccccc1)Oc1ccccc1
assigned-label: class 1
//
compound: CC(Cl)CN(C)C (stereo not drawn)
assigned-label: class 0
//
compound: Cc1ccc2c(c1N)C(=O)c1ccccc1C2=O
assigned-label: class 0
//
compound: O=C(O)C(F)(F)C(F)(F)C(=O)O
assigned-label: class 0
//
compound: Cc1c([N+](=O)[O-])cc2c(c1[N+](=O)[O-])C(C)(C)CC2(C)C
assigned-label: class 0
//
compound: CCOP(=S)(OCC)SCSCC
assigned-label: class 0
//
compound: CCCCN(CCCC)N=O
assigned-label: class 0

---

Read-out: Epidermal growth factor receptor (EGFR), EGFR (gene 1956)
method-description: BSK_hDFCGF_EGFR: BioMAP Diversity Plus: hDFCGF Assay for Epidermal growth factor receptor (EGFR) Biomarker Activity (AID 2283057)
recorded-conditions: primary human foreskin fibroblasts; actives raise or lower the signal
Activity calls are given as the source filed them. The calls were made as follows: active = hit-call score of the fitted dose curve at least 0.9, where 1 is the maximum; inactive = score below 0.9.
Labels: active, inactive

molecule: Cc1cccc(N)c1
assigned-label: inactive

molecule: O=C(O)C(F)(F)OC(F)(F)C(F)(F)OC(F)(F)F
assigned-label: inactive

molecule: O=P(Oc1ccccc1)(Oc1ccccc1)Oc1ccccc1
assigned-label: inactive

molecule: COP(N)(=S)OC
assigned-label: inactive

molecule: O=c1ssc(Cl)c1Cl
assigned-label: active

molecule: CCCCN(CCCC)SN(C)C(=O)Oc1cccc2c1OC(C)(C)C2
assigned-label: inactive

molecule: c1ccc2c(c1)Nc1ccccc1S2
assigned-label: inactive

molecule: C=CC(=O)OCC(F)(F)C(F)F
assigned-label: inactive

molecule: FC(F)(F)C(F)(C(F)(F)F)C(F)(F)C(F)(F)CC1CO1 (stereo not given)
assigned-label: inactive

molecule: Nc1ccc(Cl)cc1
assigned-label: inactive

molecule: ClC(Cl)(Cl)c1ccccc1
assigned-label: inactive

molecule: CCOc1ccc(C(C)(C)COCc2cccc(Oc3ccccc3)c2)cc1
assigned-label: inactive

molecule: OCC(F)(F)OC(F)(F)C(F)(F)OC(F)(F)C(F)(F)OC(F)(F)F
assigned-label: inactive

molecule: O=P1(N(CCCl)CCCl)NCCCO1 (stereo not given)
assigned-label: inactive

molecule: CCOP(=S)(S)OCC
assigned-label: inactive

molecule: O=C(O)C(Cl)Cl
assigned-label: inactive

molecule: CCOP(=S)(OCC)SCn1nnc2ccccc2c1=O
assigned-label: inactive

molecule: CCC1(c2ccccc2)C(=O)N=C(O)NC1=O (stereo not given)
assigned-label: inactive

molecule: CC(Cl)CN(C)C (stereo not given)
assigned-label: inactive

molecule: CCOP(=S)(OCC)SCS(=O)(=O)CC
assigned-label: inactive

molecule: Cc1ccc(N)cc1N
assigned-label: inactive

molecule: CCCCCCCc1ccc(O)cc1
assigned-label: inactive

molecule: CCCCOCCOP(=O)(OCCOCCCC)OCCOCCCC
assigned-label: inactive

molecule: c1ccc2c(c1)sc1ccccc12
assigned-label: inactive

molecule: ClC(Cl)=C(c1ccc(Cl)cc1)c1ccccc1Cl
assigned-label: active

molecule: CC(O)C(F)(F)C(F)(F)F (stereo not given)
assigned-label: inactive

molecule: CCOP(=S)(NC(C)C)Oc1ccccc1C(=O)OC(C)C (stereo not given)
assigned-label: inactive

molecule: Cc1c([N+](=O)[O-])cc2c(c1[N+](=O)[O-])C(C)(C)CC2(C)C
assigned-label: inactive

molecule: N#Cc1cc([N+](=O)[O-])ccc1N
assigned-label: inactive

molecule: O=[N+]([O-])c1ccccc1
assigned-label: inactive

molecule: CC(C)(C)c1ccccc1OP(=O)(Oc1ccccc1)Oc1ccccc1
assigned-label: active

molecule: ClC1=C(Cl)C2(Cl)C3C(Cl)C(Cl)CC3C1(Cl)C2(Cl)Cl (stereo not given)
assigned-label: inactive

molecule: CCCN(CCC)c1c([N+](=O)[O-])cc(C(C)C)cc1[N+](=O)[O-]
assigned-label: active

molecule: c1cc2c3c(cccc3c1)CC2
assigned-label: inactive

molecule: Nc1ccc2ccccc2c1
assigned-label: inactive

molecule: ClC(Cl)c1ccccc1
assigned-label: inactive

molecule: C=CC(=O)OCC(CC)(COC(=O)C=C)COC(=O)C=C
assigned-label: active

molecule: O=C(O)C(F)(F)OC(F)(F)C(F)(F)OC(F)(F)C(=O)O
assigned-label: inactive

molecule: CSC(C)(C)C=NO
assigned-label: inactive

molecule: O=S1(=O)OCC2C(CO1)C1(Cl)C(Cl)=C(Cl)C2(Cl)C1(Cl)Cl (stereo not given)
assigned-label: inactive
